ASSAYED_TARGET: T1, extracellular domain of mouse IL23R (mIL23R ECD) (mouse, UniProt Q8K4B4 24-374)
T1 construct: also called mIL-23 ECD antigen
T1 sequence: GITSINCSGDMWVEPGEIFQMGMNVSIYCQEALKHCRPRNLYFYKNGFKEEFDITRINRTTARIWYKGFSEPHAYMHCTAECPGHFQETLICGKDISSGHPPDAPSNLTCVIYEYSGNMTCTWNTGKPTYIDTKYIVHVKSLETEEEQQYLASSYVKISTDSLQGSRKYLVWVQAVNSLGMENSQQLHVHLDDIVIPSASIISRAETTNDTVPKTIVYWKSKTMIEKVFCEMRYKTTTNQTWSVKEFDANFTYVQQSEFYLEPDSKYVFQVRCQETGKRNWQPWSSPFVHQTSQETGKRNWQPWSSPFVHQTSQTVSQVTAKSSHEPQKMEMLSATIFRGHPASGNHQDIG
ASSAY_SUMMARY: periplasmic extract ELISA (PE-ELISA), 96-well plate, colorimetric
MEASURE: binding result

BINDER	DATA_VALUE
mIL23R VHH26 (VHH) VHH: QVQLQESGGGSVQAGGSLRLSCAASGYTFCMAWFRQAPGKEREGVARFYTRDGYTYYSDSVKGRFTISQNNAKNTLYLQMNSLKSEDTAMYYCAADLTRCSSNKNDFRYWGQGTQVTVSS	binds
mIL23R VHH13 (VHH) VHH: QVQLQESGGGLVQPGGSLRLSCATSGFTFRLAAMRWVRQAPGKGLEWVSGIDSRGSTIYADSVKGRFTISKDNAKNTLYLQLNSLKTEDTAMYYCAQGVYGDTYSGSQGTQVTVSS	binds
